# assay.summary: Determination of cytostatic effect on MDBK cells (MTS method)
# Type: cell-based, Bovine
# measurement.parameters: bovine, MDBK cells (exponentially growing), 3 days incubation, 50% cytostatic concentration
Give CC50 at 3 days for every item shown.
State the answer as a number, implicitly in µg/mL.

Write down CC50 at 3 days measured for item CC1=Nc2c3cc(-c4ccc(F)cc4)nc-3ccn2C1 [Compound 27b] 47.5

Write down CC50 at 3 days measured for item CCOC(=O)n1c(-c2ccc(F)cc2)cc2c1ccn1cc(C)nc21 [Compound 26b] 7.9

Write down CC50 at 3 days measured for item CCOC(=O)c1cc2c3n(ccc-2n1)CC(C(C)C)=N3 22
